The reader will find reported solubility in NMP values listed item by item below.
# run_description: Solubility of the hole transporting material in NMP
# Type: physicochemical
# condition_label: N-methylpyrrolidone
Number in mg/mL, nothing else.

Study these solved cases before continuing.
c1ccc(-c2ccc(N(c3ccc(-c4ccccc4)cc3)c3ccc(-c4ccc(N(c5ccc(-c6ccccc6)cc5)c5ccc(-c6ccccc6)cc5)c5c4CCCC5)cc3)cc2)cc1 [Comparative Example 3, reference compound]    2.5
c1ccc(-c2ccc(N(c3ccc(-c4ccccc4)cc3)c3ccc(-c4ccc(N(c5ccc(-c6ccccc6)cc5)c5ccc(-c6ccccc6)cc5)cc4)cc3)cc2)cc1 [Comparative Example 1, reference compound]    1.2
Cc1cccc(-c2ccc(N(c3ccc(-c4cccc(C)c4)cc3)c3ccc(-c4cc(C)c(N(c5ccc(-c6cccc(C)c6)cc5)c5ccc(-c6cccc(C)c6)cc5)c(C)c4)cc3)cc2)c1    15

In: Given the molecule Cc1cccc(-c2ccc(N(c3ccc(-c4cccc5c4CCCC5)cc3)c3ccc(-c4ccc(N(c5ccc(-c6cccc(C)c6)cc5)c5ccc(-c6cccc7c6CCCC7)cc5)c5c4CCCC5)cc3)cc2)c1 , write its reported solubility in NMP.
Out: 19

In: Return solubility in NMP (reported value) for this molecule: Cc1cccc(-c2ccc(N(c3ccc(-c4cc(C)c(N(c5ccc(-c6cccc(C)c6)c(C)c5)c5ccc(-c6cccc(C)c6)c(C)c5)c(C)c4)cc3)c3ccc(-c4cccc(C)c4)c(C)c3)cc2C)c1
Out: 25
